- Experimental system: MALT1 (Homo sapiens (Human), UniProt Q9UDY8)
- Sequence (Q9UDY8 whole entry): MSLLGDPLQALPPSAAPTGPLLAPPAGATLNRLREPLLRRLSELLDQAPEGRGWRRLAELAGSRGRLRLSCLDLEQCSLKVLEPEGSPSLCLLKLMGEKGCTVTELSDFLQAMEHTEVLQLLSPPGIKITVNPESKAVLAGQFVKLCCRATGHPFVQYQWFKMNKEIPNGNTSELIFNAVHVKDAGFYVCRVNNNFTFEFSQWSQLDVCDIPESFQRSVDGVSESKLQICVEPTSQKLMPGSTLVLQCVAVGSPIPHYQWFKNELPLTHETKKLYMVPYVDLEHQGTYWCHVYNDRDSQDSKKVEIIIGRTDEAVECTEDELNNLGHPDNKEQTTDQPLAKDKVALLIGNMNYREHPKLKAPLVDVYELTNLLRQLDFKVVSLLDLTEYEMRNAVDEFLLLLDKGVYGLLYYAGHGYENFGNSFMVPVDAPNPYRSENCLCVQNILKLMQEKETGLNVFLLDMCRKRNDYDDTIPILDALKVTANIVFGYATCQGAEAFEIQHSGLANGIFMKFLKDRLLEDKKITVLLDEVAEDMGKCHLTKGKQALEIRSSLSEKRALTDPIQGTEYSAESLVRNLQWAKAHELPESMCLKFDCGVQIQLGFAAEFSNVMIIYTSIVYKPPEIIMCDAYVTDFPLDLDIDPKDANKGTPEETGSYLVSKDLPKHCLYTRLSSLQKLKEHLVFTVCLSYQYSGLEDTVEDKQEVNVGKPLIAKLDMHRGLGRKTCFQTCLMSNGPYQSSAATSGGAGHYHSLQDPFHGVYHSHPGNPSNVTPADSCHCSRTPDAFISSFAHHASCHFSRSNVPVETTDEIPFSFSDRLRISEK
- Experiment description: MALT1 enzymatic activity inhibition (fluorescence, Ac-LRSR-AMC substrate)
- Assay type: biochemical
- Test settings: recombinant MALT1 1.5 ng/μl, Ac-LRSR-AMC 1 μM
Recorded measurements of EC50, one per entry

Some entries whose results are on file:
Molecule	EC50
Cc1cc(NC(=O)Nc2cnc3ccnn3c2C(C)C)cnc1-c1noc(CCCC(=O)N2CCN(c3ccc4c(c3)CN(C3CCC(=O)N(C)C3=O)C4=O)CC2)n1 (centres unmarked)	≤ 0.2 µM
O=C1CCC(N2Cc3cc(N4CCN(C(=O)CCCCCc5nc(-c6ncc(NC(=O)Nc7cnc8ccnn8c7C7CCCC7)cc6F)no5)CC4)ccc3C2=O)C(=O)N1 (centres unmarked)	0.2 to 0.5 µM
O=C1CCC(N2Cc3cc(N4CCN(C(=O)CCCCc5nc(-c6ncc(NC(=O)Nc7cnc8ccnn8c7C7CC7)cc6Cl)no5)CC4)ccc3C2=O)C(=O)N1 (centres unmarked)	≤ 0.2 µM
O=C(CCOCCN1CCN(c2ccc3c(c2)CN(C2CCC(=O)NC2=O)C3=O)CC1)NCCNC(=O)[C@@H]1C[C@@H](O)CN1C(=O)Nc1cnc2ccnn2c1C1CCCC1 (some centres unmarked)	> 5 µM

Let us examine a further case.
[in] What value of EC50 has been reported for the following molecule? CC(C)c1c(NC(=O)Nc2cnc(-c3noc(CCCCC(=O)N4CCN(c5ccc6c(c5)CN(C5CCC(=O)N(C)C5=O)C6=O)CC4)n3)c(Cl)c2)cnc2ccnn12 (centres unmarked)
[out] ≤ 0.2 µM

###

Attribute: CC50
- System: IL-2 MALT1-dependent release in Jurkat cells
- Experiment description: cells
- Format: cell-based
- Test settings: Homo sapiens, Jurkat, 24 h, read-out: CC50 (IL-2 MALT1-dependent release inhibition)
- From the text: […]

# example entries with known answers
Compound	Result
Cc1cc(NC(=O)Nc2cnc3ccnn3c2C2CCCCC2)cnc1-c1noc(CCCCCC(=O)Nc2ccc3c(c2)CN(C2CCC(=O)NC2=O)C3=O)n1 (centres unmarked)	< 500 nM
O=C1CCC(N2Cc3cc(N4CCN(C(=O)CCCCCc5nc(-c6ncc(NC(=O)Nc7cnc8ccnn8c7C7CCCCC7)cc6Cl)no5)CC4)ccc3C2=O)C(=O)N1 (centres unmarked)	< 500 nM
O=C1CCC(N2Cc3cc(N4CCN(C(=O)CCCc5nc(-c6ncc(NC(=O)Nc7cnc8ccnn8c7C7CCCCC7)cc6Cl)no5)CC4)ccc3C2=O)C(=O)N1 (centres unmarked)	< 500 nM
Cc1cc(NC(=O)Nc2cnc3ccnn3c2C2CCCCC2)cnc1-c1noc(CCCCC(=O)N2CCN(c3ccc4c(c3)CN(C3CCC(=O)NC3=O)C4=O)CC2)n1 (centres unmarked)	1000 to 5000 nM
O=C1CCC(N2Cc3cc(N4CCN(C(=O)CCCCCc5nc(-c6ncc(NC(=O)Nc7cnc8ccnn8c7C7CCC7)cc6Cl)no5)CC4)ccc3C2=O)C(=O)N1 (centres unmarked)	< 500 nM

[in] Which CC50 is listed for CC(C)c1c(NC(=O)Nc2ccc(-c3nnc(CCCCCC(=O)N4CCN(c5ccc6c(c5)CN(C5CCC(=O)NC5=O)C6=O)CC4)o3)nc2)cnc2ccnn12 (centres unmarked) ?
[out] > 5000 nM

[in] What CC50 value was documented for this compound, O=C1CCC(N2Cc3cc(N4CCN(CCCCCCc5nc(-c6ncc(NC(=O)Nc7cnc8ccnn8c7C7CCCCC7)cc6Cl)no5)CC4)ccc3C2=O)C(=O)N1 (centres unmarked) ?
[out] < 500 nM

[in] Quick one: CC50 of O=C1CCC(N2Cc3cc(N4CCN(C(=O)CCCCCc5nnc(-c6ccc(NC(=O)Nc7cnc8ccnn8c7C7CCCC7)cn6)o5)CC4)ccc3C2=O)C(=O)N1 (centres unmarked) ?
[out] > 5000 nM
